experiment.description: HepG2 cell cytotoxicity, cytotoxicity control, plate reader, single point, cherry-pick (AID 743189)
condition.label: at 25 µM, stronger effect = lower value
The other results are listed elsewhere or left out.
So basically: is activity change, negative = inhibition under -10%? Then MET. Not under? Then NOT MET.

Illustrative cases are given below, each with its answer.
Just wondering, is activity change, negative = inhibition of COc1ccc(CNC(=O)COc2ccccc2C(=O)c2cnn(-c3ccccc3)c2)cc1OC below -10%? MET

Just wondering, is activity change, negative = inhibition of O=C(c1cc(-c2ccc(Cl)cc2)on1)N1CCN(c2ccccc2)CC1 below -10%? NOT MET

Just wondering, is activity change, negative = inhibition of COc1ccc(N=Cc2c(O)[nH]c3ccccc23)cc1OC below -10%? NOT MET

Just wondering, is activity change, negative = inhibition of C/C(=C\C(=O)c1cccnc1)Nc1ccc(C)c(C)c1 below -10%? NOT MET

Just wondering, is activity change, negative = inhibition of O=C(NN=Cc1ccc2c(c1)CCC2)c1ccccc1O below -10%? MET

Continuing:
Just wondering, is activity change, negative = inhibition of CC(Cc1cccs1)NC(=O)c1cccc(Cl)c1 (configuration not stated) below -10%? MET

Just wondering, is activity change, negative = inhibition of Cc1ccc(C(=O)Nc2ccc3c(c2)OCO3)cc1S(=O)(=O)N1CCCCC1 below -10%? MET

Just wondering, is activity change, negative = inhibition of COc1cc2ccccc2cc1C(=O)Nc1ccccc1C below -10%? MET

---

Tested on: Sam68 (KHDRBS1)
experiment.description: Sam68 small-molecule binders, primary screen, biochemical, small-molecule microarray, 635 nm fluorescence (AID 1125);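 also: score merges 667 nm channel intensity with signal to noise over triplicate slides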
condition.label: small-molecule microarray binding, higher = more signal
Parameter composite z-score: see the listing below.

Give composite z-score for CC(C)[Si](C#C[Si](C(C)C)(C(C)C)C(C)C)(O[C@H](C)c1cn([C@H](C)c2ccccc2)nn1)C(C)C 1.16

---

system.name: Calmodulin-1 (Homo sapiens) (UniProt P0DP23)
experiment.description: calcium-bound CALM1 binders on microarrays, profiling panel, artefact control for SMM control-protein annotation, biochemical, small-molecule microarray, Cy5-labelled CALM1, plus calcium (AID 1112);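 also: score merges spot fluorescence with signal to noise from triplicate slides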
condition.label: Cy5-CALM1 binding fluorescence, higher = more signal
Classification field: yes (1) = composite z-score at or over 0.7; no (0) = composite z-score under 0.7.

Illustrative cases are given below, each with its answer.
Is reported composite z-score greater than or equal to 0.7 here: C=CCNC(=O)[C@@H]1[C@H]2C(=O)O[C@H](c3ccccc3)[C@H](c3ccccc3)N2[C@H](c2ccc(O)cc2)[C@@]12C(=O)Nc1ccc(C#Cc3ccc(OC)cc3)cc12 yes (1)

Is reported composite z-score greater than or equal to 0.7 here: CN(C)CCCC[C@@H]1NC(=O)[C@@H]2C[C@H](C(=O)NCCCCCNC(=O)CS)[C@H](c3cccc(OCCO)c3)N2C1=O yes (1)

Is reported composite z-score greater than or equal to 0.7 here: C=CCN1C(=O)[C@@]2(O[C@@H](CCO)[C@H]([Si](C)(C)c3ccc(OC)cc3)[C@H]2C)c2cc(N3C(=O)c4cccc5cccc3c45)ccc21 yes (1)

Is reported composite z-score greater than or equal to 0.7 here: C=CCN1C(=O)[C@@]2(O[C@@H](CCn3cc(CCO)nn3)[C@H]([Si](C)(C)c3ccc(OC)cc3)[C@H]2C)c2cc(NC(=O)c3ccc(OC)cc3)ccc21 no (0)

Is reported composite z-score greater than or equal to 0.7 here: COc1ccc([Si](C)(C)[C@@H]2[C@@H](CCn3cc(CCO)nn3)O[C@]3(C(=O)N(Cc4ccc(N5C(=O)c6cccc7cccc5c67)cc4)c4ccccc43)[C@H]2C)cc1 yes (1)

Okay, next one:
Is reported composite z-score greater than or equal to 0.7 here: CC(C)C(=C=CC[C@H](O)c1ccc(OCCO)cc1)C[C@H](O)COCc1ccccc1 no (0)
